- system_under_test: Akt3 (Homo sapiens)
- Construct: endogenous in cells
- Sequence (Q9Y243 whole entry): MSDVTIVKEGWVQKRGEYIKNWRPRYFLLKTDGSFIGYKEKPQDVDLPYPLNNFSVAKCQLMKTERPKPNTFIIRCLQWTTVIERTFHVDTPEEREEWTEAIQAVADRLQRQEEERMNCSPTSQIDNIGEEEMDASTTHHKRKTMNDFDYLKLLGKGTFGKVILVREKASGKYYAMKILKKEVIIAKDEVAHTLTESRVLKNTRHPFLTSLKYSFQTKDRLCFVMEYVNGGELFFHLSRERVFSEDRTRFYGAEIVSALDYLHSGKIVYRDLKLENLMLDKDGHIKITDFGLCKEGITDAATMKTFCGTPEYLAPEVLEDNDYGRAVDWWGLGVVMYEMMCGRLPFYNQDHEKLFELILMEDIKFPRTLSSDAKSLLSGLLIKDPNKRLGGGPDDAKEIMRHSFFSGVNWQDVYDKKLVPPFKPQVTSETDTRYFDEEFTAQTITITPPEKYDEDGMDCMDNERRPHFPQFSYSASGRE
- assay_name: Akt3 inhibition activity of selected compounds
pIC50: −log10 of the molar value.
Entries and their pIC50 values follow.

Consider the worked cases shown below.
[[record]]
smiles_string = "O=C(Nc1ccc(Nc2ccncc2)cc1)c1cccc(Nc2ccnc3ccc(F)cc23)c1"
recorded_value = "> 5.70"

[[record]]
smiles_string = "Cc1cccc2nccc(Nc3cccc(C(=O)Nc4ccc(Nc5ccncc5)cc4)c3)c12"
recorded_value = "> 5.70"

[[record]]
smiles_string = "Cc1c(Nc2ccc(C(=O)Nc3cccc(Nc4ccncc4)c3)cc2)ccnc1N"
recorded_value = "> 5.70"

[[record]]
smiles_string = "Cc1cc(Nc2ccc(C(=O)Nc3cccc(Nc4ccncc4)c3)cc2)cc(N)n1"
recorded_value = "> 5.30"


--- query ---
Read the entry `Nc1cc(Nc2ccc(C(=O)Nc3cccc(Nc4ccncc4)c3)cc2)ccn1` and write its reported pIC50.
> 5.30
